// provenance: paper PMC11083148

Here the recorded melting point is given for each entry.

Field request: melting point | item: CCOC(=O)c1c(NC(=O)c2ccc(OC)cc2)nn(C)c1Nc1ccccc1
143 to 145 °C

Field request: melting point | item: COc1ccc(/C=N/NC(=O)c2c(N)n[nH]c2Nc2ccccc2)cc1 [10a]
227 to 232 °C

Field request: melting point | item: CCOC(=O)c1c(NC(=O)C2CC2)nn(C)c1Nc1ccccc1
144 to 145 °C

Field request: melting point | item: CCOC(=O)c1c(NC(=O)c2ccc(OC)cc2)n[nH]c1Nc1ccccc1
155 to 157 °C

Field request: melting point | item: CCOC(=O)c1c(NC(=O)c2ccc(OC)c(OC)c2)n[nH]c1Nc1ccccc1
143 to 145 °C

---

Tested on: MDA-MB231
Test: MTT assay, antiproliferative activity
Assay type: cell-based
Conditions: Homo sapiens, MDA-MB-231, 48h
Here the recorded Mean growth percentage at 10 µM is given for each entry.
Report the figure in % without appending any unit label.

Some entries whose results are on file:
INSERT INTO results (compound, units_of_measure, measured) VALUES
  ('COc1ccc(/C=N/NC(=O)c2c(N)n[nH]c2Nc2ccccc2)cc1OC [10b]', '%', 100),
  ('CCOC(=O)c1c(NC(=O)c2ccc(OC)cc2)nn(C)c1Nc1ccccc1', '%', 136),
  ('COc1ccc(/C=N/NC(=O)c2c(Nc3ccccc3)nn(CC(O)c3ccccc3)c2N)cc1Oc1ccccc1 (stereo not drawn) [13c]', '%', 104),
  ('COc1ccc(/C=N/NC(=O)c2c(Nc3ccccc3)nn(C)c2N)cc1 [12a]', '%', 97.9),
  ('COc1ccc(/C=N/NC(=O)c2c(N)n[nH]c2Nc2ccccc2)cc1 [10a]', '%', 99.1),
  ('CCOC(=O)c1c(NC(=O)c2ccc(Cl)cc2)nn(C)c1Nc1ccccc1', '%', 141),
  ('CCOC(=O)c1c(NC(=O)c2ccc(OC)c(OC)c2)nn(C)c1Nc1ccccc1', '%', 149),
  ('COc1ccc(/C=N/NC(=O)c2c(N)nn(C)c2Nc2ccccc2)cc1 [11a]', '%', 72),
  ('CCOC(=O)c1c(NC(=O)c2ccc(OC)c(OC)c2)n[nH]c1Nc1ccccc1', '%', 96),
  ('COc1ccc(/C=N/NC(=O)c2c(Nc3ccccc3)nn(CC(O)c3ccccc3)c2N)cc1OCc1ccccc1 (stereo not drawn) [13d]', '%', 93.8);

Field request: Mean growth percentage at 10 µM | item: CCOC(=O)c1c(NC(=O)c2ccc(OC)cc2)n[nH]c1Nc1ccccc1
130

Field request: Mean growth percentage at 10 µM | item: COc1ccc(/C=N/NC(=O)c2c(Nc3ccccc3)nn(C)c2N)cc1Oc1ccccc1 [12c]
100

Field request: Mean growth percentage at 10 µM | item: COc1ccc(/C=N/NC(=O)c2c(N)nn(C)c2Nc2ccccc2)cc1Oc1ccccc1 [11c]
93.4

---

Test system: GM-6114
Assay: MTT assay, cytotoxicity on normal fibroblasts
Assay type: cell-based
Conditions: human, 48 h, 10 µM
quantity_kind: Mean Growth Percentage (%)
Report the figure in % without appending any unit label.

Some entries whose results are on file:
INSERT INTO results (molecule, measured) VALUES
  ('COc1ccc(/C=N/NC(=O)c2c(Nc3ccccc3)nn(CC(O)c3ccccc3)c2N)cc1Oc1ccccc1 (stereo not drawn) [13c]', 99.14),
  ('COc1ccc(/C=N/NC(=O)c2c(Nc3ccccc3)nn(C)c2N)cc1OCc1ccccc1 [12d]', 102.79),
  ('CCOC(=O)c1c(NC(=O)c2ccc(OC)cc2)nn(C)c1Nc1ccccc1', 66.69),
  ('COc1ccc(/C=N/NC(=O)c2c(N)nn(C)c2Nc2ccccc2)cc1Oc1ccccc1 [11c]', 105.27),
  ('COc1ccc(/C=N/NC(=O)c2c(Nc3ccccc3)nn(C)c2N)cc1 [12a]', 100.38);

Field request: Mean Growth Percentage | item: COc1ccc(/C=N/NC(=O)c2c(N)nn(C)c2Nc2ccccc2)cc1OCc1ccccc1 [11d]
99.22

Field request: Mean Growth Percentage | item: COc1ccc(/C=N/NC(=O)c2c(N)nn(C)c2Nc2ccccc2)cc1OC [11b]
104.95

---

Test system: MCF7
Experiment: MTT assay, antiproliferative activity
Format: cell-based
Details: Homo sapiens, 10 µM, 48h
quantity_kind: mean growth percentage (cell growth remaining vs control) at 10 µM (%)
Report the figure in % without appending any unit label.

Some entries whose results are on file:
INSERT INTO measurements (molecule, measured) VALUES
  ('COc1ccc(/C=N/NC(=O)c2c(N)nn(C)c2Nc2ccccc2)cc1OC [11b]', 94.8),
  ('COc1ccc(/C=N/NC(=O)c2c(Nc3ccccc3)nn(C)c2N)cc1Oc1ccccc1 [12c]', 88.3),
  ('COc1ccc(/C=N/NC(=O)c2c(Nc3ccccc3)nn(C)c2N)cc1 [12a]', 88.5),
  ('COc1ccc(/C=N/NC(=O)c2c(Nc3ccccc3)nn(CC(O)c3ccccc3)c2N)cc1 (stereo not drawn) [13a]', 81),
  ('CCOC(=O)c1c(NC(=O)c2ccc(OC)cc2)nn(C)c1Nc1ccccc1', 95.2);

Turning now to a further record.
Field request: mean growth percentage (cell growth remaining vs control) at 10 µM | item: COc1ccc(/C=N/NC(=O)c2c(N)nn(C)c2Nc2ccccc2)cc1Oc1ccccc1 [11c]
84.5

---

Tested on: SKMEL28
Test: MTT assay, antiproliferative activity
Type: cell-based
Settings: Homo sapiens, SK-MEL-28, MTT
quantity_kind: pIC50
When answering, recall that pIC50 equals minus log10 of the concentration in mol/L, and write that number alone.

Query pIC50 on SKMEL28 for COc1ccc(/C=N/NC(=O)c2c(N)nn(C)c2Nc2ccccc2)cc1 [11a]
5.02

---

Test system: SK-BR3
Assay: MTT assay, antiproliferative activity
Type: cell-based
Settings: Homo sapiens, SK-BR-3, 48h
Here the recorded Mean growth percentage at 10 µM is given for each entry.
Report the figure in % without appending any unit label.

Some entries whose results are on file:
INSERT INTO measurements (compound, measured) VALUES
  ('CCOC(=O)c1c(NC(=O)c2ccc(OC)cc2)nn(C)c1Nc1ccccc1 [compound 19]', 103),
  ('COc1ccc(/C=N/NC(=O)c2c(N)nn(C)c2Nc2ccccc2)cc1OCc1ccccc1 [11d]', 90.2),
  ('CCOC(=O)c1c(NC(=O)c2c(OC)cccc2OC)nn(C)c1Nc1ccccc1 [compound 20]', 106),
  ('COc1ccc(/C=N/NC(=O)c2c(N)nn(C)c2Nc2ccccc2)cc1OC [11b]', 86),
  ('COc1ccc(/C=N/NC(=O)c2c(Nc3ccccc3)nn(CC(O)c3ccccc3)c2N)cc1OCc1ccccc1 (stereo not drawn) [13d]', 97.9);

Field request: Mean growth percentage at 10 µM | item: COc1ccc(/C=N/NC(=O)c2c(N)n[nH]c2Nc2ccccc2)cc1 [10a]
95.5

Field request: Mean growth percentage at 10 µM | item: CCOC(=O)c1c(NC(=O)C2CC2)nn(C)c1Nc1ccccc1 [compound 17]
106

Field request: Mean growth percentage at 10 µM | item: COC(=O)c1c(NC(=O)c2cc(OC)c(OC)c(OC)c2)n[nH]c1Nc1ccccc1 [compound 14]
53.8

Field request: Mean growth percentage at 10 µM | item: COc1ccc(/C=N/NC(=O)c2c(N)nn(C)c2Nc2ccccc2)cc1 [11a]
57

Field request: Mean growth percentage at 10 µM | item: COc1ccc(/C=N/NC(=O)c2c(Nc3ccccc3)nn(CC(O)c3ccccc3)c2N)cc1OC (stereo not drawn) [13b]
92.2

Field request: Mean growth percentage at 10 µM | item: CCOC(=O)c1c(NC(=O)c2ccc(Cl)cc2)nn(C)c1Nc1ccccc1 [compound 18]
80.9

Field request: Mean growth percentage at 10 µM | item: CCOC(=O)c1c(NC(=O)c2ccc(OC)c(OC)c2)nn(C)c1Nc1ccccc1 [compound 21]
107

Field request: Mean growth percentage at 10 µM | item: COc1ccc(/C=N/NC(=O)c2c(Nc3ccccc3)nn(C)c2N)cc1OCc1ccccc1 [12d]
90.6

Field request: Mean growth percentage at 10 µM | item: COc1ccc(/C=N/NC(=O)c2c(Nc3ccccc3)nn(C)c2N)cc1Oc1ccccc1 [12c]
82.1

Field request: Mean growth percentage at 10 µM | item: COc1ccc(/C=N/NC(=O)c2c(Nc3ccccc3)nn(CC(O)c3ccccc3)c2N)cc1 (stereo not drawn) [13a]
91.8

Field request: Mean growth percentage at 10 µM | item: CCOC(=O)c1c(NC(=O)c2ccc(OC)cc2)n[nH]c1Nc1ccccc1 [compound 15]
99.8

Field request: Mean growth percentage at 10 µM | item: COc1ccc(/C=N/NC(=O)c2c(Nc3ccccc3)nn(CC(O)c3ccccc3)c2N)cc1Oc1ccccc1 (stereo not drawn) [13c]
87.5

Field request: Mean growth percentage at 10 µM | item: COc1ccc(/C=N/NC(=O)c2c(N)nn(C)c2Nc2ccccc2)cc1Oc1ccccc1 [11c]
83.1
